# ASSAY_SYSTEM: T1, LIN7A, O14910
# T1 sequence (O14910 103-200, limits assumed, looked up): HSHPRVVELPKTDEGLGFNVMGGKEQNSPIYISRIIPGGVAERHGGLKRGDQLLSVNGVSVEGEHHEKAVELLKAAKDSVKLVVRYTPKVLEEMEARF
# ASSAY_METHOD_TEXT: holdup assay
# Parameters: key: below the threshold = too weak to quantify, mostly under pKd 3.1 to 4
# EXPERIMENTAL_CONDITIONS: plain residues with an end cap or a label only (N-terminal biotin on a linker: ttds)
ASSAY_ENDPOINT: pKd

The following binders have reported results that may help.
>  <BINDER>
VLRLQSETSV [VANGL1, Q8TAA9]

>  <pKd>
below the threshold

$$$$
>  <BINDER>
TVASEKESVM [SLC1A5, Q15758]

>  <pKd>
below the threshold

$$$$
>  <BINDER>
IYVPEAQTRL [DLGAP4, Q9Y2H0]

>  <pKd>
below the threshold

$$$$
>  <BINDER>
PKTPPTDTSV [KIR3DL3, Q8N743]

>  <pKd>
below the threshold

$$$$
>  <BINDER>
SSRTRRETQL [HPV16-E6, P03126]

>  <pKd>
below the threshold

$$$$
>  <BINDER>
GQDSREETQL [KCNT2, Q6UVM3]

>  <pKd>
below the threshold

$$$$
>  <BINDER>
SVWLRKETRV [CYSLTR2, Q9NS75]

>  <pKd>
4.17

$$$$
>  <BINDER>
STLTIFETAL [ABCC4, O15439]

>  <pKd>
3.66

$$$$
>  <BINDER>
ERKLSSESQV [LRP4, O75096]

>  <pKd>
below the threshold

$$$$
>  <BINDER>
RSLEEEESQL [GRASP, Q7Z6J2]

>  <pKd>
3.56

$$$$

// each listed binder needs a value for pKd
1. SRPQRTQTQV [HPV67-E6, A4U7F2]
2. QSARYRDTEL [TJP2, Q9UDY2]
3. IDNDTESTAL [ARHGAP17, Q68EM7]

1: below the threshold; 2: below the threshold; 3: below the threshold
